src = the supplement of paper PMC8728848

Experimental system: Fuc(a1-2)Gal(b1-3)GlcNAc(b1-3)[Gal(b1-4)GlcNAc(b1-6)]Gal(b1-4)Glc
Method: glycan array binding signal (z-score within array); higher = stronger binding
Assay setup: glycan notation: IUPAC condensed, linker removed
About 410 targets per protein were measured; listed, in parts, are those with the strongest signals and a random draw of the rest.
Below: a set of entries, each annotated with reported glycan array binding signal (z-score).

Known results for binders:
1. SSR1 (Sclerotium rolfsii), A0A0M3KL30 (protein) TYKITVRVYQTNPDAFFHPVEKTVWKYANGGTWTITDDQHVLTMGGSGTSGTLRFHADNGESFTATFGVHNYKRWCDIVTNLAADETGMVINQQYYSQKNREEARERQLSNYQVKNAKGRNFQIVYTEAEGNDLHANLIIG; -0.321
2. EfCBM33A (Enterococcus faecalis), Q838S1 (protein) MKKSLLTIVLAFSFVLGGAALAPTVSEAHGYVASPGSRAFFGSSAGGNLNTNVGRAQWEPQSIEAPKNTFITGKLASAGVSGFEPLDEQTATRWHKTNITTGPLDITWNLTAQHRTASWDYYITKNGWNPNQPLDIKNFDKIASIDGKQEVPNKVVKQTINIPTDRKGYHVIYAVWGIGDTVNAFYQAIDVNIQ; -0.026

# ---- query binder ----
Reported glycan array binding signal (z-score) for PGP3 (Chlamydia trachomatis), P0CE18 (protein) MGNSGFYLYNTQNCVFADNIKVGQMTEPLKDQQIILGTTSTPVAAKMTASDGISLTVSNNPSTNASITIGLDAEKAYQLILEKLGDQILGGIADTIVDSTVQDILDKITTDPSLGLLKAFNNFPITNKIQCNGLFTPRNIETLLGGTEIGKFTVTPKSSGSMFLVSADIIASRMEGGVVLALVREGDSKPYAISYGYSSGVPNLCSLRTRIINTGLTPTTYSLRVGGLESGVVWVNALSNGNDILGITNTSNVSFLEVIPQTNA was 0.289
